B1: INTS3 (parent)
chain: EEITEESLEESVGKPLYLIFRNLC

- Variants of: B1
- assay: protein stability index of a GFP-peptide fusion (GPS, HEK-293T) (PSI 1-6); higher = more stable;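 further: lentivirally expressed fusions sorted by FACS into six bins by GFP to DsRed ratio, PSI derived from sequencing read proportions per bin multiplied by bin number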
- condition.description: c terminus: a fixed tail appended
Listing of recorded protein stability index by entry.
quantity.measured: protein stability index

[[record]]
change = "P15N"
quantity_measured = "protein stability index"
result = 2.29

[[record]]
change = "Y17F"
quantity_measured = "protein stability index"
result = 2.73

[[record]]
change = "I3H"
quantity_measured = "protein stability index"
result = 3.67

